Biological target: UniProt:O94956
Sequence (O94956 whole entry): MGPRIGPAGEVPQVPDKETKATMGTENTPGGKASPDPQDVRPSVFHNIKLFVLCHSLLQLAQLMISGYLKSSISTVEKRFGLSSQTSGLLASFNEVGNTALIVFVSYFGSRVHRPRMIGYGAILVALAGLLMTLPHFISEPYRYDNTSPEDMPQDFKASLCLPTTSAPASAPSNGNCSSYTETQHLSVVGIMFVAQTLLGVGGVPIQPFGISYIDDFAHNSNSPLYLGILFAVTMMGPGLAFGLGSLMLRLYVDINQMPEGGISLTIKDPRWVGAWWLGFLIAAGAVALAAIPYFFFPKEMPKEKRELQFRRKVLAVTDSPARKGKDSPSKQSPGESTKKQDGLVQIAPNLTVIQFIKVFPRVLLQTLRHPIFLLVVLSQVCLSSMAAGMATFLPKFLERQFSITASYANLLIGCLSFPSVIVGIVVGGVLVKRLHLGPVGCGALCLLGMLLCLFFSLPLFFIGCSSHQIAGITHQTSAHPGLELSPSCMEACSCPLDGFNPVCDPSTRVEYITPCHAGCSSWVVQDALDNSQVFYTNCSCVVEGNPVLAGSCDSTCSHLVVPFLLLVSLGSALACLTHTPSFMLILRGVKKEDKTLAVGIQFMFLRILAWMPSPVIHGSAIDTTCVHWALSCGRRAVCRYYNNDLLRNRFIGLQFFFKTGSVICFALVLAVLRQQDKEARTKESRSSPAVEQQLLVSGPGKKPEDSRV
Experiment: Drug uptake ratio assessed as enzyme-mediated uptake in HEK293 cells expressing human OATP2B1 at 10 uM at 37 degC for 3 mins by liquid scintillation spectroscopy relative to wild type
Type: ADME, cell-based
# key: entry, value: uptake ratio at 0.05 h, 10 µM

[
  {
    "Test Smiles": "CC(C)c1nc(N(C)S(C)(=O)=O)nc(-c2ccc(F)cc2)c1/C=C/[C@@H](O)C[C@@H](O)CC(=O)O",
    "Tested Target": "UniProt:O94956",
    "uptake ratio at 0.05 h, 10 µM": 6.3
  },
  {
    "Test Smiles": "C[C@]12CC[C@@H]3c4ccc(OS(=O)(=O)O)cc4CC[C@H]3[C@@H]1CCC2=O",
    "Tested Target": "UniProt:O94956",
    "uptake ratio at 0.05 h, 10 µM": 50
  }
]

---

Test: Drug uptake in sandwich-cultured human hepatocytes at 0.05 to 10 uM at 37 degC by Michaelis-Menten kinetics/scintillation spectroscopy
Type: ADME, cell-based, Hepatocyte
Experimental Endpoint: Km at up to 10 µM (µM)

[
  {
    "Test Smiles": "C[C@H]1O[C@@H](O[C@H]2[C@@H](O)C[C@H](O[C@H]3[C@@H](O)C[C@H](O[C@H]4CC[C@@]5(C)[C@H](CC[C@@H]6[C@@H]5C[C@@H](O)[C@]5(C)[C@@H](C7=CC(=O)OC7)CC[C@]65O)C4)O[C@@H]3C)O[C@@H]2C)C[C@H](O)[C@@H]1O",
    "Measured Number": 2.39
  }
]

---

# key: entry, value: uptake ratio at 0.05 h, 1 µM
Target: OATP1B3 (Homo sapiens)
Sequence (Q9NPD5 whole entry): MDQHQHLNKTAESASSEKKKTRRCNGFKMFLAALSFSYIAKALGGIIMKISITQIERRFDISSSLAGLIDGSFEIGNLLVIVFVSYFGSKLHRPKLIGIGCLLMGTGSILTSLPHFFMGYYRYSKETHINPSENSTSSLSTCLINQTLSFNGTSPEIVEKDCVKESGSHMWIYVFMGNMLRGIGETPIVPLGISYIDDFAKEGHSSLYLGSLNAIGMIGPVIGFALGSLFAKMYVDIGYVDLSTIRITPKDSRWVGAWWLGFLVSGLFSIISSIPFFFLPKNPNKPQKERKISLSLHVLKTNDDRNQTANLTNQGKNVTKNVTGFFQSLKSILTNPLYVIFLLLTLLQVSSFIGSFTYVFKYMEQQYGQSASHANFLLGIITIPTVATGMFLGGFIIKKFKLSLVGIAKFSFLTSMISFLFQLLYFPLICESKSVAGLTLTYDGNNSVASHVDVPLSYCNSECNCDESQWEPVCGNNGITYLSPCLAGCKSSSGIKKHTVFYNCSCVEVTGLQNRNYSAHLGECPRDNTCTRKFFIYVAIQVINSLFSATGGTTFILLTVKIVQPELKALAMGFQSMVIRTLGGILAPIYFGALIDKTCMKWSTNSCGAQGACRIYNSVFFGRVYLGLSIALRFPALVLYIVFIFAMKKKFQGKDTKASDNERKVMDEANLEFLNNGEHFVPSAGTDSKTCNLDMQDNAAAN
Assay: Drug uptake ratio assessed as enzyme-mediated uptake in HEK293 cells expressing human OATP1B3 at 1 uM at 37 degC for 3 mins by liquid scintillation spectroscopy relative to wild type
Assay type: ADME, cell-based

[
  {
    "Molecule": "C[C@]12CC[C@@H]3c4ccc(O)cc4CC[C@H]3[C@@H]1CC[C@@H]2O[C@@H]1O[C@H](C(=O)O)[C@@H](O)[C@H](O)[C@H]1O [ESTRADIOL 17B GLUCURONIDE]",
    "uptake ratio at 0.05 h, 1 µM": 87
  },
  {
    "Molecule": "Cc1ncc2n1-c1ccc(Cl)cc1C(c1ccccc1F)=NC2",
    "uptake ratio at 0.05 h, 1 µM": 1.7
  },
  {
    "Molecule": "CC(C)c1nc(N(C)S(C)(=O)=O)nc(-c2ccc(F)cc2)c1/C=C/[C@@H](O)C[C@@H](O)CC(=O)O",
    "uptake ratio at 0.05 h, 1 µM": 35
  }
]
